Below, each entry is listed with its recorded AUC(0-t).
- protocol_summary: PK study in rats after single i.g. administration of IMMH-010 maleate
- Type: in vivo, Sprague-Dawley rats
- experimental_setup: female, Sprague-Dawley, po; rat plasma; single i.g. IMMH-010 maleate 10 mg/kg; mean ± SD, n = 5
Expressed in ng·h/mL, but write only the number.

If you can, please state the reported AUC(0-t) value of O=C(O)[C@H](CO)NCc1cc(Cl)c(OCc2cccc(-c3ccccc3)c2Br)cc1OCc1cccnc1 [YPD-29B] .
94.3

Read the next record carefully.
Look up AUC(0-t) for this compound: CC(C)OC(=O)C(CO)NCc1cc(Cl)c(OCc2cccc(-c3ccccc3)c2Br)cc1OCc1cccnc1 (centres unmarked)
8.5

----------
- protocol_summary: PK study in rats after single i.g. administration of IMMH-010 maleate
- Assay type: in vivo, Sprague-Dawley rats
- experimental_setup: female, Sprague-Dawley, po; rat plasma; single i.g. IMMH-010 maleate 30 mg/kg; median (range), n = 5
experimental_readout: Tmax
Respond with a number, then the unit of measure.

Query: Tmax; subject: O=C(O)[C@H](CO)NCc1cc(Cl)c(OCc2cccc(-c3ccccc3)c2Br)cc1OCc1cccnc1 [YPD-29B]
30 min

Consider the record given below.
Dear colleague, I am looking for the recorded Tmax of the following molecule: CC(C)OC(=O)C(CO)NCc1cc(Cl)c(OCc2cccc(-c3ccccc3)c2Br)cc1OCc1cccnc1 (centres unmarked) [IMMH-010]
30 min

----------
- protocol_summary: Tissue distribution study in rats
- Format: in vivo, Sprague-Dawley rats
- experimental_setup: female, Sprague-Dawley, rat, oral; adrenal gland; time 0.25; i.g. 10 mg/kg IMMH-010 maleate; read-out: T/P (tissue-to-plasma partition)
experimental_readout: Kp at 0.25 h
Response field accepts a number only; no unit should be typed.

Which Kp at 0.25 h is listed for CC(C)OC(=O)C(CO)NCc1cc(Cl)c(OCc2cccc(-c3ccccc3)c2Br)cc1OCc1cccnc1 (centres unmarked) [IMMH-010] ?
25

In the following, a different compound is considered.
Look at this compound and give its reported Kp at 0.25 h. O=C(O)[C@H](CO)NCc1cc(Cl)c(OCc2cccc(-c3ccccc3)c2Br)cc1OCc1cccnc1 [YPD-29B]
0.5

----------
- protocol_summary: Tissue distribution study in rats
- Format: in vivo, Sprague-Dawley rats
- experimental_setup: female, Sprague-Dawley, rat, oral; lung; time 0.5; i.g. 10 mg/kg IMMH-010 maleate; read-out: T/P (tissue-to-plasma partition)
experimental_readout: Kp at 0.5 h
Reply briefly: the number, and no unit.

GET /values?readout=Kp at 0.5 h&item= O=C(O)[C@H](CO)NCc1cc(Cl)c(OCc2cccc(-c3ccccc3)c2Br)cc1OCc1cccnc1 [YPD-29B]
2

# input for lookup
// lookup Kp at 0.5 h for CC(C)OC(=O)C(CO)NCc1cc(Cl)c(OCc2cccc(-c3ccccc3)c2Br)cc1OCc1cccnc1 (centres unmarked)
0.3

----------
- protocol_summary: Tissue distribution study in rats
- Format: in vivo, Sprague-Dawley rats
- experimental_setup: female, Sprague-Dawley, rat, oral; lymph; time 4; i.g. 10 mg/kg IMMH-010 maleate; read-out: T/P (tissue-to-plasma partition)
experimental_readout: Kp at 4 h
The answer should be written as a number, with no unit following it.

Query: Kp at 4 h; subject: O=C(O)[C@H](CO)NCc1cc(Cl)c(OCc2cccc(-c3ccccc3)c2Br)cc1OCc1cccnc1 [YPD-29B]
9.1

meta.source: paper PMC8256334
